Target: FLT3 (Homo sapiens)
Sequence (P36888 27-993): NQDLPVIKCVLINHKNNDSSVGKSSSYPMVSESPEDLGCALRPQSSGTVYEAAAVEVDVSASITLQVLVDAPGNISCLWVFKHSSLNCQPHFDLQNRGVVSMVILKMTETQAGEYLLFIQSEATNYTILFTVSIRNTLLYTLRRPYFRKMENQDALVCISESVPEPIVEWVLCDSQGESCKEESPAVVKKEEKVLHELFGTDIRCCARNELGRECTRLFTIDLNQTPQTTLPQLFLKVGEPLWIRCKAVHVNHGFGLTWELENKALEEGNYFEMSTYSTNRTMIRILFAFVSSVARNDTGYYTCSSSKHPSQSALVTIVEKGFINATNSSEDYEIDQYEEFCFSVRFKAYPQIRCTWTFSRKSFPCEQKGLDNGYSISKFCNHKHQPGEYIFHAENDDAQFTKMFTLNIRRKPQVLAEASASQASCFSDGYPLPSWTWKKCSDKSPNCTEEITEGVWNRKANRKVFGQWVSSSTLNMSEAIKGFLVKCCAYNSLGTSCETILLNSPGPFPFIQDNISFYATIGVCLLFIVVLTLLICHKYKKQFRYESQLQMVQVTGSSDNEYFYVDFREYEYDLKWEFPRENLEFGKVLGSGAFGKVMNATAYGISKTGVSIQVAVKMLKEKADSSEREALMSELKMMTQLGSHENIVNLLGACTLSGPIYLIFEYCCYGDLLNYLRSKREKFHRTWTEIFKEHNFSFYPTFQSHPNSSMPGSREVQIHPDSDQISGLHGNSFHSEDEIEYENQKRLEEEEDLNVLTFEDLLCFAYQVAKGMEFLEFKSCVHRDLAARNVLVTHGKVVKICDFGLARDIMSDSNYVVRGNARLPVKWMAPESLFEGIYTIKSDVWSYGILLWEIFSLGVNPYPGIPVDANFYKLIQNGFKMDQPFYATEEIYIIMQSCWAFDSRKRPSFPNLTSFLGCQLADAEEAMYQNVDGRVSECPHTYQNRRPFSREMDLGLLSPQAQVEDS
Each entry below lists one item and its recorded IC50 value.
Write the number in nM without appending the unit.

compound | IC50 / nM
CC(C)c1cc(Nc2nc(N3CCC[C@H]3C(=O)N(C)c3nccs3)nc3c2CCC3)n[nH]1 [68b] | 112

Please turn your attention to the following entry.
Recorded IC50 for CCC(=O)N1CCN(C(=O)[C@@H]2CCCN2c2nc3c(c(Nc4cc(C5CCCC5)[nH]n4)n2)CCC3)CC1 [143b] , please?
58

----------
target: Trk B (Homo sapiens, UniProt Q16620)
Sequence (Q16620 32-822): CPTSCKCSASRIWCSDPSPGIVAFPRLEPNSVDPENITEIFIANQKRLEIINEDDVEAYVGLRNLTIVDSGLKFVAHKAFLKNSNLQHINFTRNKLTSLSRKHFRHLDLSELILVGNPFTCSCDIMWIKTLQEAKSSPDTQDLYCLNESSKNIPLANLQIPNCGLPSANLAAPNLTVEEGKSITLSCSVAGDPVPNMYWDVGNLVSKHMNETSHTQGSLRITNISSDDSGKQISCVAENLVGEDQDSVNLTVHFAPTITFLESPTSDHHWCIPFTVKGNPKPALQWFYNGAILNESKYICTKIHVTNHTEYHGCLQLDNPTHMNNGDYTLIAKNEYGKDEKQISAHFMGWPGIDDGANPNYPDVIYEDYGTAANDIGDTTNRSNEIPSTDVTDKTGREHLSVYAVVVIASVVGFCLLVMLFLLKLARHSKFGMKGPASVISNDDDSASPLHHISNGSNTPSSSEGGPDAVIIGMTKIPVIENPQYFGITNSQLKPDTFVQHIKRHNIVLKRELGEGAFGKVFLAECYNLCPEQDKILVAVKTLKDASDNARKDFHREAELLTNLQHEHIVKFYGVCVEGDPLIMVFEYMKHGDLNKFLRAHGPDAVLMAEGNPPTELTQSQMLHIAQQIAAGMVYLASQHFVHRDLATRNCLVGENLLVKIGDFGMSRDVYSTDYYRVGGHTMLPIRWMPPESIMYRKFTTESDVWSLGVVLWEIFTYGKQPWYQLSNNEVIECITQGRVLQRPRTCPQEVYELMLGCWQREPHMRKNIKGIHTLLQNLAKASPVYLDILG
measurement-label: pIC50
Kindly note that pIC50 refers to -log10 of the concentration in mol/L and answer with the value alone.

The following compounds have reported results that may help.
compound | target-entity | pIC50
CC1(C)CCN(C(=O)[C@@H]2CCCN2c2nc3c(c(Nc4cc(C5CCCC5)n[nH]4)n2)CCC3)CC1 [135b] | Trk B (Homo sapiens, UniProt Q16620) | 9.00
CC(C)c1cc(Nc2nc(N3CCC[C@H]3C(=O)N3CC(F)(F)C(F)(F)C3)nc3c2CCC3)n[nH]1 [112b] | Trk B (Homo sapiens, UniProt Q16620) | 8.40
CC(C)c1cc(Nc2nc(N3CCC[C@H]3C(=O)N3CCC(F)(F)C3)nc3c2CCC3)n[nH]1 [111b] | Trk B (Homo sapiens, UniProt Q16620) | 8.70

pIC50 for CN1CCN(C(=O)[C@@H]2CCCN2c2nc3c(c(Nc4cc(C5CCCC5)[nH]n4)n2)CCC3)CC1 [134b] ?
7.51
